Origin of measurements: the supplement of paper PMC9112550

Tested on: Escherichia coli TOP10
Experiment: shrunken log2 fold change of peptide-encoding DNA abundance (4.5 h post-induction vs induction); higher = less antimicrobial activity (less host growth inhibition)
Conditions: time post-induction: 4.5 h; library: site-saturation at positions 5, 18, 19, 20
Listing of entries alongside the reported shrunken log2 fold change.
recordedMetric: shrunken log2 fold change

seq	testedOn	endpointValue
RRIRIRPPRLPRPRPRPLSLPRP	Escherichia coli TOP10	-0.868
RRIRGRPPRLPRPRPRPWRSPRP	Escherichia coli TOP10	0.172
RRIRLRPPRLPRPRPRPTQLPRP	Escherichia coli TOP10	0.221
RRIRWRPPRLPRPRPRPILFPRP	Escherichia coli TOP10	-0.456
RRIRRRPPRLPRPRPRPSWHPRP	Escherichia coli TOP10	-0.0466
RRIRCRPPRLPRPRPRPDWMPRP	Escherichia coli TOP10	-0.11
RRIRQRPPRLPRPRPRPPSEPRP	Escherichia coli TOP10	-0.0213
RRIRPRPPRLPRPRPRPPVAPRP	Escherichia coli TOP10	0.366
RRIRMRPPRLPRPRPRPPMGPRP	Escherichia coli TOP10	0.921
RRIRNRPPRLPRPRPRPFMAPRP	Escherichia coli TOP10	-0.513
RRIRQRPPRLPRPRPRPMKAPRP	Escherichia coli TOP10	0.181
RRIRTRPPRLPRPRPRPAAVPRP	Escherichia coli TOP10	-0.0116
RRIRQRPPRLPRPRPRPMQWPRP	Escherichia coli TOP10	0.0039
RRIRARPPRLPRPRPRPGMSPRP	Escherichia coli TOP10	0.649
RRIRCRPPRLPRPRPRPQNLPRP	Escherichia coli TOP10	-0.49
RRIRNRPPRLPRPRPRPKPRPRP	Escherichia coli TOP10	0.83
RRIRERPPRLPRPRPRPTQCPRP	Escherichia coli TOP10	-0.133

====

Listing of entries alongside the reported shrunken log2 fold change.
Test system: Escherichia coli TOP10
Test: shrunken log2 fold change of peptide-encoding DNA abundance (4.5 h post-induction vs induction); higher = less antimicrobial activity (less host growth inhibition)
Details: time post-induction: 4.5 h; library: site-saturation at positions 5, 18, 19, 20

seq	shrunken log2 fold change
RRIRMRPPRLPRPRPRPDEMPRP	0.0155
RRIRTRPPRLPRPRPRPWKHPRP	-0.529
RRIRQRPPRLPRPRPRPGVTPRP	0.0644
RRIRIRPPRLPRPRPRPETYPRP	-0.263
RRIRKRPPRLPRPRPRPPKFPRP	0.514
RRIRWRPPRLPRPRPRPNAKPRP	0.188
RRIRTRPPRLPRPRPRPYCKPRP	-0.129
RRIRHRPPRLPRPRPRPNAWPRP	0.341
RRIRCRPPRLPRPRPRPMRCPRP	0.404
RRIRARPPRLPRPRPRPANLPRP	0.177
RRIRGRPPRLPRPRPRPRSPPRP	0.449
RRIRTRPPRLPRPRPRPQDCPRP	0.0249
RRIRPRPPRLPRPRPRPTCAPRP	0.268

====

Listing of entries alongside the reported shrunken log2 fold change.
Test system: Escherichia coli TOP10;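 further: peptides expressed intracellularly from a pBAD plasmid library in pooled LB shake-flask culture, induced with 0.3% L-arabinose, DNA abundance read by NGS, three biological replicates, DESeq2 with apeglm shrinkage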
Assay: shrunken log2 fold change of peptide-encoding DNA abundance (4.5 h post-induction vs induction); higher = less antimicrobial activity (less host growth inhibition)
Conditions: time post-induction: 4.5 h; library: site-saturation at positions 5, 18, 19, 20

seq	shrunken log2 fold change
RRIRPRPPRLPRPRPRPPWHPRP	0.196
RRIRWRPPRLPRPRPRPQVNPRP	0.141
RRIRYRPPRLPRPRPRPHHGPRP	0.0431
RRIRVRPPRLPRPRPRPRPWPRP	0.178
RRIRERPPRLPRPRPRPDLWPRP	-0.141
RRIRYRPPRLPRPRPRPFKLPRP	-0.0907
RRIRNRPPRLPRPRPRPFTAPRP	0.613
